Measured protein stability index, listed per entry.
B1: SLC6A17 (parent)
chain: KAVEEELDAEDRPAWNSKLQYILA

Variants of: B1
procedure-details: protein stability index of a GFP-peptide fusion (GPS, HEK-293T) (PSI 1-6); higher = more stable;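 note: lentivirally expressed fusions sorted by FACS into six bins by GFP to DsRed ratio, PSI derived from sequencing read proportions per bin multiplied by bin number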
experimental-setup: c terminus: a fixed tail appended
Answer as a number with no unit attached.

Exam item: Returns the measured protein stability index for the input variant. Input: KAVEEELDAEDRPAWNQKLQYILA [S17Q]
Marked response: 2.32

Please find the next variant below.
Exam item: Returns the measured protein stability index for the input variant. Input: KAVEEELDAEDNPAWNSKLQYILA [R12N]
Marked response: 2.97
